System: Heart
EXPERIMENTAL PROTOCOL: Cardiotoxicity in New Zealand White rabbit heart assessed as change in QRS width at 100 uM after 20 mins relative to baseline
Format: toxicity, tissue-based, Oryctolagus cuniculus
READOUT TYPE: Activity (%)
State the answer as a number, implicitly in %.

Exercise: Quick one: Activity for CC[C@H](C[C@H](O)[C@@H](N)CN1CC(=O)N(c2ccccc2Cl)CC1(C)C)C(=O)N[C@H]1C2CC3CC1C[C@](O)(C3)C2.O=C(O)/C=C/C(=O)O ?
Solution: 1.7

----------
Test system: Rattus norvegicus
EXPERIMENTAL PROTOCOL: Cardiotoxicity in Sprague-Dawley rat electrophysiology model assessed as QRS complex abnormalities at 10 mg/kg, iv by ECG analysis
Format: toxicity, organism-based
Design: dose 10 mg/kg, route intravenous
PARTICULARS: in vivo
READOUT TYPE: Activity

Examples with answers:
[[record]]
molecule = "CC(C)[C@H](C[C@H](O)[C@@H](N)CN1CC(=O)N(c2ccccc2Cl)CC1(C)C)C(=O)Nc1ccccn1.O=C(O)/C=C/C(=O)O"
obs_value = "Toxic"

[[record]]
molecule = "CC(C)[C@H](C[C@H](O)[C@@H](N)CN1CC(=O)N(c2ccccc2Cl)CC1(C)C)C(=O)Nc1ccc(F)c(F)c1.O=C(O)/C=C/C(=O)O"
obs_value = "Toxic"

[[record]]
molecule = "CC(C)[C@H](C[C@H](O)[C@@H](N)CN1CC(=O)N(c2ccccc2Cl)CC1(C)C)C(=O)NCC(C)(C)CO.O=C(O)/C=C/C(=O)O"
obs_value = "Toxic"

[[record]]
molecule = "COC(=O)C(C)(C)CNC(=O)[C@@H](C[C@H](O)[C@@H](N)CN1CC(=O)N(c2ccccc2Cl)CC1(C)C)C(C)C.O=C(O)/C=C/C(=O)O"
obs_value = "Toxic"

[[record]]
molecule = "CC(C)[C@H](C[C@H](O)[C@@H](N)CN1CC(=O)N(c2ccccc2Cl)CC1(C)C)C(=O)NCC(C)(C)C(N)=O.O=C(O)/C=C/C(=O)O"
obs_value = "Non-toxic"

[[record]]
molecule = "CC(C)[C@H](C[C@H](O)[C@@H](N)CN1CC(=O)N(c2ccccc2Cl)CC1(C)C)C(=O)Nc1ccc(F)cc1.O=C(O)/C=C/C(=O)O"
obs_value = "Toxic"

[[record]]
molecule = "CC(C)[C@H](C[C@H](O)[C@@H](N)CN1CC(=O)N(c2ccccc2Cl)CC1(C)C)C(=O)NCC(C)(C)C.O=C(O)/C=C/C(=O)O"
obs_value = "Toxic"

[[record]]
molecule = "CC[C@H](C[C@H](O)[C@@H](N)CN1CC(=O)N(c2ccccc2Cl)CC1(C)C)C(=O)Nc1ccc(C)cc1.O=C(O)/C=C/C(=O)O"
obs_value = "Toxic"


// moving on: another record for Activity
Exercise: Kindly state the measured Activity obtained for C[C@H](C[C@H](O)[C@@H](N)CN1CC(=O)N(c2ccccc2Cl)CC1(C)C)C(=O)N[C@H]1C2CC3CC1C[C@](O)(C3)C2.O=C(O)/C=C/C(=O)O with Rattus norvegicus.
Solution: Non-toxic

----------
STUDY TARGET: Renin (Macaca fascicularis) (UniProt Q6DLS0)
Sequence (Q6DLS0 whole entry): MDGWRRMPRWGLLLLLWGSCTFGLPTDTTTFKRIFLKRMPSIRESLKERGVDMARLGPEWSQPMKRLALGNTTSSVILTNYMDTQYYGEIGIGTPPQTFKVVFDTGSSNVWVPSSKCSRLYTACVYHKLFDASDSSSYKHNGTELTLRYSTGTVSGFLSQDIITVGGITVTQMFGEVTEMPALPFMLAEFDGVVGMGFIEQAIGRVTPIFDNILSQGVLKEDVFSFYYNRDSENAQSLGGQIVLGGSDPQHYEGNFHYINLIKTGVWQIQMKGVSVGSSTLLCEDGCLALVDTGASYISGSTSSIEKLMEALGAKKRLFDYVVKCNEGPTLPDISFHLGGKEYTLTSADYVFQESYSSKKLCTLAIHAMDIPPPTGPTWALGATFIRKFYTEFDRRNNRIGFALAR
EXPERIMENTAL PROTOCOL: Ratio of compound IC50 to aliskiren IC50 for renin in cynomolgus monkey plasma
In plain terms, low Ratio IC50, meaning strictly below 0.8, gives yes (1), and everything else gives no (0).

[[record]]
molecule = "CC(C)[C@H](C[C@H](O)[C@@H](N)CN1CC(=O)N(c2ccccc2Cl)CC1(C)C)C(=O)Nc1ncc(F)cc1F.O=C(O)/C=C/C(=O)O"
class_assignment = "yes (1)"

[[record]]
molecule = "Cc1ccc(F)cc1N1CC(C)(C)N(C[C@H](N)[C@@H](O)C[C@@H](C)C(=O)NCC(C)(C)C)CC1=O.O=C(O)/C=C/C(=O)O"
class_assignment = "yes (1)"

[[record]]
molecule = "CC[C@H](C[C@H](O)[C@@H](N)CN1CC(=O)N(c2ccccc2Cl)CC1(C)C)C(=O)Nc1ccc(C)cc1.O=C(O)/C=C/C(=O)O"
class_assignment = "no (0)"


Exercise: Here's an entry: Cc1ccc(F)cc1N1CC(C)(C)N(C[C@H](N)[C@@H](O)C[C@H](C(=O)N[C@H]2C3CC4CC2C[C@](O)(C4)C3)C(C)C)CC1=O.O=C(O)/C=C/C(=O)O . Is its Ratio IC50 below 0.8?
Solution: no (0)

Exercise: Could you please tell me whether Ratio IC50 recorded for CC[C@H](C[C@H](O)[C@@H](N)CN1CC(=O)N(c2ccccc2Cl)CC1(C)C)C(=O)NCC1(CO)CCCCC1.O=C(O)/C=C/C(=O)O is less than 0.8?
Solution: yes (1)
